Provenance of the data: ChEMBL document CHEMBL1158520

assay: Clearance in Wistar rat at 1 mg/kg, iv; type: ADME, organism-based; design: dose 1 mg/kg, route intravenous; settings: in vivo
ASSAY_METRIC: clearance (mL/min/kg)

# MOLECULE, ASSAY_METRIC, NUMERIC_READOUT
records = [
    ("COc1cc2c(cc1OC)[C@@H]1CC(N)[C@@H](c3cccc(C)c3)CN1CC2 (mixture of isomers)", "clearance", 87),
    ("COc1cc2c(cc1OC)[C@@H]1C[C@H](N)[C@@H](c3cc(C)ccn3)CN1CC2", "clearance", 118),
]

###

test: Oral bioavailability in Wistar rat at 3 mg/kg; format: ADME, organism-based; details: in vivo
Reported bioavailability by item:
ASSAY_METRIC: bioavailability (%)

# MOLECULE, ASSAY_METRIC, UNIT_OF_MEASURE, NUMERIC_READOUT
measured = [
    ("COc1cc2c(cc1OC)[C@@H]1C[C@H](N)[C@@H](c3cc(C)ccn3)CN1CC2", "bioavailability", "%", 50),
    ("COc1cc2c(cc1OC)[C@@H]1CC(N)[C@@H](c3cccc(C)c3)CN1CC2 (mixture of isomers)", "bioavailability", "%", 56),
]

###

assay: Distribution coefficient, log D at pH 7.4; type: physicochemical; conditions: octanol/water
Reported logD by item:

# COMPOUND, logD
records = [
    ("COc1cc2c(cc1OC)[C@@H]1CC(N)[C@@H](c3cc(CF)ccn3)CN1CC2 (mixture of isomers)", 0.1),
    ("COc1cc2c(cc1OC)[C@@H]1CC(N)[C@@H](c3cccc(C(C)C)c3)CN1CC2 (mixture of isomers)", 2),
    ("COc1cc2c(cc1OC)[C@@H]1CC(N)[C@@H](c3cccc(C)c3)CN1CC2 (mixture of isomers)", 1.3),
]

###

test: Distribution coefficient, log D at pH 7.4; format: physicochemical; details: octanol/water
Reported logD by item:

# COMPOUND, logD
data = [
    ("COc1cc2c(cc1OC)[C@@H]1CC(N)[C@@H](c3cc(C)ccn3)CN1CC2 (mixture of isomers)", 0.3),
    ("COc1cc2c(cc1OC)[C@@H]1CC(N)[C@@H](c3cccc(C4CC4)c3)CN1CC2 (mixture of isomers)", 1.8),
    ("COc1cc2c(cc1OC)[C@@H]1CC(N)[C@@H](c3cccc(Cl)c3)CN1CC2 (mixture of isomers)", 1.7),
    ("COc1cc2c(cc1OC)[C@@H]1CC(N)[C@@H](c3cc(C)ccc3C)CN1CC2 (mixture of isomers)", 1.6),
    ("COc1cc2c(cc1OC)[C@@H]1CC(N)[C@@H](c3ccccc3)CN1CC2 (mixture of isomers)", 0.8),
    ("CCc1cccc([C@H]2CN3CCc4cc(OC)c(OC)cc4[C@@H]3CC2N)c1 (mixture of isomers)", 1.7),
    ("COc1cc2c(cc1OC)[C@@H]1CC(N)[C@@H](c3cccc(CF)c3)CN1CC2 (mixture of isomers)", 1.6),
]

###

assay: Ratio of drug level in brain to plasma of Wistar rat; format: ADME
Reported Kp by item:
ASSAY_METRIC: Kp

# COMPOUND, NUMERIC_READOUT
measured = [
    ("COc1cc2c(cc1OC)[C@@H]1C[C@H](N)[C@@H](c3cc(C)ccn3)CN1CC2", 0.7),
    ("COc1cc2c(cc1OC)[C@@H]1CC(N)[C@@H](c3cccc(C)c3)CN1CC2 (mixture of isomers)", 5.8),
]

###

experiment: Half life in Wistar rat at 1 mg/kg, iv; format: ADME, organism-based; set-up: dose 1 mg/kg, route intravenous; conditions: in vivo
Reported half-life by item:

# MOLECULE, UNIT_OF_MEASURE, half-life
records = [
    ("COc1cc2c(cc1OC)[C@@H]1CC(N)[C@@H](c3cccc(C)c3)CN1CC2 (mixture of isomers)", "h", 6.9),
    ("COc1cc2c(cc1OC)[C@@H]1C[C@H](N)[C@@H](c3cc(C)ccn3)CN1CC2", "h", 1.4),
]

###

molecular target: Dipeptidyl peptidase 4 (Homo sapiens, UniProt P27487)
Sequence (P27487 whole entry): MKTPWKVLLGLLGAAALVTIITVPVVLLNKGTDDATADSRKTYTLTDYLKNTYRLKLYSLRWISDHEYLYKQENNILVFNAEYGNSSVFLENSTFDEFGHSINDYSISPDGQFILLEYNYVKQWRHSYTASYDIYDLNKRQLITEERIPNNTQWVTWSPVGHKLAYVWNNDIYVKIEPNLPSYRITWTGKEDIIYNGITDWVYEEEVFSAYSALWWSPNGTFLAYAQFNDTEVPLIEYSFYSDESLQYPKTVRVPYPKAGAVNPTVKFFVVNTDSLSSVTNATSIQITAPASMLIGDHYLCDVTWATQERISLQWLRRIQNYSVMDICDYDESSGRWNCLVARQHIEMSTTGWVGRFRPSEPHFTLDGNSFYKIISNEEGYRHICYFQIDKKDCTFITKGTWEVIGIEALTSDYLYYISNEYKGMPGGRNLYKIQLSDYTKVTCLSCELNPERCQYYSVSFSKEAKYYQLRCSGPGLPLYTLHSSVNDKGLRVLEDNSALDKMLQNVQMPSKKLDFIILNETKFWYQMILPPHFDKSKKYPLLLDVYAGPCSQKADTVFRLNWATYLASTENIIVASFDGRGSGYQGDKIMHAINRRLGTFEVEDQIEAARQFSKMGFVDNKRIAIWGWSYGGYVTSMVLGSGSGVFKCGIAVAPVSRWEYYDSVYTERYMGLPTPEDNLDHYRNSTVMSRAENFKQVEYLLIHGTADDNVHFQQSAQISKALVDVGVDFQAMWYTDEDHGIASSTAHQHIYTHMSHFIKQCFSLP
pIC50: −log10 of the molar value.

# COMPOUND, pIC50
records = [
    ("COc1cc2c(cc1OC)[C@@H]1CC(N)[C@@H](c3cc(CF)ccn3)CN1CC2 (mixture of isomers)", 8.92),
]
